# Target: Cytochrome P450 1A2 (Homo sapiens) (UniProt P05177)
# Sequence (P05177 whole entry, looked up): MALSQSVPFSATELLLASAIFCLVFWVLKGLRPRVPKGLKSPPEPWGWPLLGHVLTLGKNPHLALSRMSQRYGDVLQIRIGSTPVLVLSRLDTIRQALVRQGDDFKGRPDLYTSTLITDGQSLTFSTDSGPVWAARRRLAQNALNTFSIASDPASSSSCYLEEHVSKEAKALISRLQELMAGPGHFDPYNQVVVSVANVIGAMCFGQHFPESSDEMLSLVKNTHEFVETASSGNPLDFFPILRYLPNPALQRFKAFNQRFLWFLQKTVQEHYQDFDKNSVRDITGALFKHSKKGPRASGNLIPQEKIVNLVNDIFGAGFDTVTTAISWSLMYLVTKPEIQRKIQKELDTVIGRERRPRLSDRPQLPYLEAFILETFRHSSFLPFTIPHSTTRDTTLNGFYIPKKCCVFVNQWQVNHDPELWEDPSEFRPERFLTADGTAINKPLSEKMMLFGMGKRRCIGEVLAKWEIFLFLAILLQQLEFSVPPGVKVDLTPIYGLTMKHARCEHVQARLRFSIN
# Measurement protocol: Cytochrome P450 Family 1 Subfamily A Member 2 (CYP1A2) small molecule antagonists: luciferase reporter qHTS assay (AID 1671199); further: nearly all actives have a fitted effect of over 50% in size; further: potency means the concentration at half of the fitted maximal effect
# Recorded conditions: P450-Glo CYP1A2 enzyme, luciferin luminescence, 1 h; series mostly up to 53 µM
# Excerpt: National Center for Advancing Translational Sciences [NCATS] U.S. Environmental Protection Agency [EPA] National Institutes of Environmental Health Sciences [NIEHS] National Toxicology Program [NTP] U.S. Food and Drug Administration [FDA] Cytochrome P450 (CYP) enzymes are membrane-bound hemeproteins that play a key role in metabolism of drugs and xenobiotics. […] The luciferin products formed are detected with a luciferin detection reagent, and the amount of light produced is proportional to CYP activity. […]
Inconclusive results are not listed. Active and inactive are the calls of the source. The call rests on the fitted dose curve; in most records, active means well fitted inhibition curve with a large enough effect in the repeat runs; inconclusive means weak or mixed curves; inactive means no such curve, though single readings can be large or run the other way.

| Compound | Potency |
| --- | --- |
| CCCCOc1ccc(OCCCN2CCOCC2)cc1 | inactive |
| O=C1NC(=O)c2cc([N+](=O)[O-])ccc21 | 28.5 µM (active) |
| CO/N=C(/C(=O)N[C@@H]1C(=O)N2C(C(=O)O)=C(COC(N)=O)CS[C@H]12)c1ccco1 | inactive |
| O=c1[nH]c2ccc(Cl)cc2o1 | 10 µM (active) |
| CCCCCCCCC(CCCCCC)C(=O)O (stereo not given) | inactive |
| FC(F)(F)c1ccccc1Cl | inactive |
| O=[N+]([O-])c1ccc(Nc2ccc(Nc3ccccc3)c(S(=O)(=O)O)c2)c([N+](=O)[O-])c1 | inactive |
| Cc1ccc2c(Br)cc(Br)c(O)c2n1 | 36.3 µM (active) |
| COc1cc(Nc2c(C#N)cnc3cc(OCCCN4CCN(C)CC4)c(OC)cc23)c(Cl)cc1Cl | inactive |
| CCOC(=O)c1ccc(O)c(O)c1 | 27.5 µM (active) |
| CC(CC1c2ccccc2CCc2ccccc21)CN(C)C (stereo not given) | inactive |
| CCOC(=O)c1ccc(C#Cc2ccc3c(c2)C(C)(C)CCS3)nc1 | inactive |
| Cc1cc(=O)c2c(O)c3c(O)cc(=O)c4c3c3c(cc(O)c1c23)C(C)(C)C=4O | inactive |
| Cc1ccccc1N=C(N)Nc1ccccc1C | inactive |
| CC(=O)Oc1ccc([N+](=O)[O-])cc1CCl | inactive |
| Brc1cc2ccccc2c2ccccc12 | 0.32 µM (active) |
| Nc1ccc(N=Nc2ccccc2)c(N)c1 | 7.8 µM (active) |
| O=C(O)c1cccc(-c2noc(-c3ccccc3F)n2)c1 | 4.56 µM (active) |
| COc1cc(N)c(Cl)cc1C(=O)NC1CCN(CCCOc2ccc(F)cc2)CC1OC (stereo not given) | inactive |
| O=C(O)CCc1nc(-c2ccccc2)c(-c2ccccc2)o1 | inactive |
| COC(=O)[C@H]1[C@H]2C[C@@H]3c4[nH]c5cc(OC)ccc5c4CCN3C[C@H]2C[C@@H](OC(=O)/C=C/c2ccc(O)c(OC)c2)[C@@H]1OC | inactive |
| CC(=O)c1cc2ccccc2s1 | 6.92 µM (active) |
| CC1CC(C)C(=O)C1=O (stereo not given) | inactive |
| O=c1[nH]ncc2ccccc12 | inactive |
| CCOc1ccccc1O[C@H](c1ccccc1)[C@H]1CNCCO1 | inactive |
| C=CC(=O)OCC1CC2CC1C1CCC(COC(=O)C=C)C21 (stereo not given) | 35.6 µM (active) |
| O=C(O)CCCCCCCCCCCBr | inactive |
| CN(C)CCC=C1c2ccccc2C=Cc2ccccc21 | inactive |
| Cc1cc(O)ccc1O | inactive |
| CN(C(=O)CN(CCO)CC(=O)N(C)C(C)(C)Cc1ccccc1)C(C)(C)Cc1ccccc1 | inactive |
| Oc1cc2c(cc1O)[C@H]1c3ccc(O)c(O)c3OC[C@@]1(O)C2 | 36 µM (active) |
| CC1(C)O[C@@H]2C[C@H]3[C@@H]4C[C@H](F)C5=CC(=O)C=C[C@]5(C)[C@H]4[C@@H](O)C[C@]3(C)[C@]2(C(=O)CO)O1 | inactive |
| C=COCC(C)C | inactive |
| CC(=O)NC1(c2cccc(F)c2)CCN(CC[C@@]2(c3ccc(Cl)c(Cl)c3)CN(c3ccccc3)C(=O)CO2)CC1 | inactive |
| O=C(Nc1cccc2c(=O)cc(-c3nn[nH]n3)oc12)c1ccc(OCCCCc2ccccc2)cc1 | inactive |
| O=C1Cc2cc(Cl)ccc2N1 | 11 µM (active) |
| Cc1ccc(CO)cc1 | 32.1 µM (active) |
| Nc1nnc(-c2ccc([N+](=O)[O-])o2)o1 | 39.9 µM (active) |
| CS(=O)(=O)c1ccc(-c2cn3ccccc3n2)cc1 | 0.456 µM (active) |
| CCCCCCCC/C=C\CCCCCCCCCCCC(=O)O | inactive |
| C[C@@H]1CC(=O)NN=C1c1ccc(NN=C(C#N)C#N)cc1 | inactive |
| C=C1c2cccc(O)c2C(O)=C2C(=O)[C@]3(O)C(O)=C(C(N)=O)C(=O)[C@@H](N(C)C)[C@@H]3[C@@H](O)[C@H]12 | inactive |
| CCC(OCCCOC)OC(C)=O (stereo not given) | 36.4 µM (active) |
| O=C(CCc1ccc(O)cc1)c1c(O)cc(O)cc1O | 36.4 µM (active) |
| c1cc(N(CC2CO2)CC2CO2)ccc1Cc1ccc(N(CC2CO2)CC2CO2)cc1 (stereo not given) | inactive |

The measurements presented in this section are drawn from PubChem BioAssay (Tox21).
